Study system: PcrV of P. aeruginosa strain 6077 (Pseudomonas aeruginosa strain 6077)
Experimental details: cell-based or functional assay
Readout kind: Rabbit RBC Hemolysis Assay (IC50) (nM)
Please reply with the bare figure in nM and do not write the unit itself.

So what's the measured Rabbit RBC Hemolysis Assay (IC50) for this one? H1H29332P (antibody, V domains shown) VH: EVQLVESGGDLVQPGGSLRLSCKASGFTFSTFAMNWVRQAPGRGLEWVSAIGASGYSTYYVDSMKGRFTISRDNSKNTLYLQMNSLGAEDTAVYYCAKEYSVSSNYYYGMDVWGQGTTVTVSS VL: DIQMTQSPSSLSASVGDRVTITCRASQTIRRYLNWYQQKAGKAPKLLIYAASSLLSGVPSRFSASGSGTDFTLTISSLQPEDFSTYYCQQTYSIPITFGQGTRLEIKR 15.3

Numbers sourced from patent US20260184768A1.
